- target_system: human CRF-R2β, stably transfected CHO cells (human) (UniProt Q13324)
- assay_text: competitive displacement of [125I-Tyr0]Ucn from stably transfected CHO cells expressing human CRF-R2β; 95% confidence limits in brackets
Where no end group is shown, it is not given here.
observed_property: pKi
Give bare numbers, as −log10 of the molar value.

binder NDDPPISIDLTFHLLRNMIEMARIENEREQAGLNRKYLDEV-NH2 (also called sfUI; suckerfishUI) [suckerfish urotensin I] , pKi observed: 8.52

Origin of values: patent US20030032587A1
